system: MCF7; assay: Proteolysis targeting chimera activity in human MCF7 cells assessed as induction of E3 ubiquitin ligase-mediated ERalpha level after 24 hrs by in-cell Western assay relative to control; format: cell-based; design: concentration or dose not given beside the values
assay-endpoint: Activity
Returns: string containing the numeric result and its unit.

Completed entries (count: 4):
O=C(NCCCCOc1ccc(C(=C2C3CC4CC(C3)CC2C4)c2ccc(O)cc2)cc1)C12CC3CC(CC1C3)C2 ... 71%
CC(C)(C)OC(=O)N[C@@H](Cc1ccccc1)C(=O)NCCCCOc1ccc(C(=C2C3CC4CC(C3)CC2C4)c2ccc(O)cc2)cc1 ... 71%
CC12CC3CC(C)(C1)CC(C(=O)NCCCCOc1ccc(C(=C4C5CC6CC(C5)CC4C6)c4ccc(O)cc4)cc1)(C3)C2 ... 42%
O=C(NCCCCOc1ccc(C(=C2C3CC4CC(C3)CC2C4)c2ccc(O)cc2)cc1)C12CC3CC(CC(C3)C1)C2 ... 51%

Proceed to the following item.
Request: What value of Activity on MCF7 does `O=C(NCCCCOc1ccc(C(=C2C3CC4CC(C3)CC2C4)c2ccc(O)cc2)cc1)C1CCCCC1` have?
Response: 35%

###

Below, each entry is listed alongside its reported RBA.
Molecular target: Estrogen receptor (Homo sapiens) (UniProt P03372)
Sequence (whole entry): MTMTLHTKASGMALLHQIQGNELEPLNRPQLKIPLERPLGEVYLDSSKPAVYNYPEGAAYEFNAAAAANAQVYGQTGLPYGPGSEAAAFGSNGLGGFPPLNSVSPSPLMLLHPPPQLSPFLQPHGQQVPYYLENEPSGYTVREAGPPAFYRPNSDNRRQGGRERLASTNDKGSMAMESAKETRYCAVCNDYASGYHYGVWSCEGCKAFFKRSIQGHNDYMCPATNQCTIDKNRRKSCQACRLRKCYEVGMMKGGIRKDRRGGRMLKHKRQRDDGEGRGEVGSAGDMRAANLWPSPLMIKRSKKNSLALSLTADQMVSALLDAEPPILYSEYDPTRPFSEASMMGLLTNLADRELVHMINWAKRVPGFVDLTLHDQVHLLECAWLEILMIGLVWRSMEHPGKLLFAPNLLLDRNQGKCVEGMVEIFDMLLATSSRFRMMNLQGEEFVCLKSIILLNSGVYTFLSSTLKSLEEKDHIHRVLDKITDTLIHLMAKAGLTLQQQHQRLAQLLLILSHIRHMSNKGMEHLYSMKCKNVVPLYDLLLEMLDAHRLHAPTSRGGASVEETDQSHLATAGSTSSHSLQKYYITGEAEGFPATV
Assay: Displacement of [3H]estradiol from human full length ERalpha after 18 to 24 hrs by scintillation counting method
State the answer as a number, implicitly in %.

O=C(NCCCCOc1ccc(C(=C2C3CC4CC(C3)CC2C4)c2ccc(O)cc2)cc1)[C@@H]1C[C@@H]2C=C[C@H]1C2 ... 37
O=C(NCCOc1ccc(C(=C2C3CC4CC(C3)CC2C4)c2ccc(O)cc2)cc1)C12CC3CC(CC(C3)C1)C2 ... 21
O=C(NCCCCOc1ccc(C(=C2C3CC4CC(C3)CC2C4)c2ccc(O)cc2)cc1)[C@H]1CC[C@H](C(F)(F)F)CC1 ... 10

Request: What value of RBA on Estrogen receptor (Homo sapiens) (UniProt P03372) does `CC(C)(C)OC(=O)N[C@@H](Cc1ccccc1)C(=O)NCCCCOc1ccc(C(=C2C3CC4CC(C3)CC2C4)c2ccc(O)cc2)cc1` have?
Response: 14

Request: What value of RBA on Estrogen receptor (Homo sapiens) (UniProt P03372) does `CC(C)C[C@H](NC(=O)OC(C)(C)C)C(=O)NCCCCOc1ccc(C(=C2C3CC4CC(C3)CC2C4)c2ccc(O)cc2)cc1` have?
Response: 14

Request: What value of RBA on Estrogen receptor (Homo sapiens) (UniProt P03372) does `O=C(NCCCCOc1ccc(C(=C2C3CC4CC(C3)CC2C4)c2ccc(O)cc2)cc1)C12CC3CC(CC1C3)C2` have?
Response: 17
